Test target: T1, PDZD2_2, O15018
T1 sequence (O15018 329-429, limits assumed, looked up): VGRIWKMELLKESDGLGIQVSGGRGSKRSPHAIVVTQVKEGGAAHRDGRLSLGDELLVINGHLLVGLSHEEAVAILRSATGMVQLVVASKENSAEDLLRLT
Protocol summary: holdup assay
Design: key: below the threshold = too weak to quantify, mostly under pKd 3.1 to 4
Assay context: plain residues with an end cap or a label only (N-terminal biotin on a linker: ado-ado)
Assay metric: pKd

Binder	Assay metric	Result
QRYPGNQTTC [CCL24, O00175]	pKd	below the threshold
SRPHTNETSL [MCC, P23508]	pKd	below the threshold
AHGSTRDQSI [KCNB1, Q14721]	pKd	below the threshold
IKLETKKTKL [SLC15A2, Q16348]	pKd	below the threshold
